Exercise: state measured viability, T/C for each of the compounds provided.
system: 327498-153-R-J2-PDC complex spheroid growth, % test/control; assay: Anticancer human tumor 327498-153-R-J2-PDC patient-derived uterine carcinosarcoma cell line growth inhibition [Asc]; conditions: second compound 0.03 µM; first compound 0.0316 µM; stronger effect = lower value;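 note: spheroids exposed to compound for 7 days after 3 days of growth; 100% = DMSO vehicle control wells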
Give bare numbers, in %.

Examples from the recorded data:
compound="CNC(C)C(=O)NC1CN(S(=O)(=O)c2cccc(S(=O)(=O)N3CCC4CCC(C(=O)NC(c5ccccc5)c5ccccc5)N4C(=O)C(NC(=O)C(C)NC)C3)c2)CCC2CCC(C(=O)NC(c3ccccc3)c3ccccc3)N2C1=O (stereo not given) + CCN1C(C(=O)NC23CCC(C(=O)O)(CC2)CC3)C(c2cccc(Cl)c2F)C2(C(=O)Nc3cc(Cl)ccc32)C12CCCCC2" unit_spec=% reported_value=85.6
compound="CCN1CCN(Cc2ccc(Nc3ncc(F)c(-c4cc(F)c5nc(C)n(C(C)C)c5c4)n3)nc2)CC1 + CCN1C(C(=O)NC23CCC(C(=O)O)(CC2)CC3)C(c2cccc(Cl)c2F)C2(C(=O)Nc3cc(Cl)ccc32)C12CCCCC2" unit_spec=% reported_value=77.1
compound="C=CC(=O)N1CCN(c2nc(=O)n(-c3c(C)ccnc3C(C)C)c3nc(-c4c(O)cccc4F)c(F)cc23)C(C)C1 (stereo not given) + CCN1C(C(=O)NC23CCC(C(=O)O)(CC2)CC3)C(c2cccc(Cl)c2F)C2(C(=O)Nc3cc(Cl)ccc32)C12CCCCC2" unit_spec=% reported_value=80.2
compound="O=C(c1cc(Cc2n[nH]c(=O)c3ccccc23)ccc1F)N1CCN(C(=O)C2CC2)CC1 + CCN1C(C(=O)NC23CCC(C(=O)O)(CC2)CC3)C(c2cccc(Cl)c2F)C2(C(=O)Nc3cc(Cl)ccc32)C12CCCCC2" unit_spec=% reported_value=94.9
compound="Cn1ncnc1[C@H]1c2n[nH]c(=O)c3cc(F)cc(c23)N[C@@H]1c1ccc(F)cc1 + CCN1C(C(=O)NC23CCC(C(=O)O)(CC2)CC3)C(c2cccc(Cl)c2F)C2(C(=O)Nc3cc(Cl)ccc32)C12CCCCC2" unit_spec=% reported_value=12.6
compound="C=C(F)C(=O)N1CCN(c2nc(OCC3CCCN3C)nc3c2CCN(c2cccc4cccc(Cl)c24)C3)CC1CC#N (stereo not given) + CCN1C(C(=O)NC23CCC(C(=O)O)(CC2)CC3)C(c2cccc(Cl)c2F)C2(C(=O)Nc3cc(Cl)ccc32)C12CCCCC2" unit_spec=% reported_value=56.4

Dear colleague, could you please provide viability, T/C for the compounds listed below?
1. NC1CCC(NC2CC2c2ccccc2)CC1 (stereo not given) + CCN1C(C(=O)NC23CCC(C(=O)O)(CC2)CC3)C(c2cccc(Cl)c2F)C2(C(=O)Nc3cc(Cl)ccc32)C12CCCCC2
2. COc1c(OCCCN2CCOCC2)ccc2c3n(c(=NC(=O)c4cnc(N)nc4)nc12)CCN3 + CCN1C(C(=O)NC23CCC(C(=O)O)(CC2)CC3)C(c2cccc(Cl)c2F)C2(C(=O)Nc3cc(Cl)ccc32)C12CCCCC2
3. O=C(c1ccc(F)c(F)c1Nc1ccc(I)cc1F)N1CC(O)([C@@H]2CCCCN2)C1 + CCN1C(C(=O)NC23CCC(C(=O)O)(CC2)CC3)C(c2cccc(Cl)c2F)C2(C(=O)Nc3cc(Cl)ccc32)C12CCCCC2

Reply text:
1. 103
2. 76.5
3. 70.5

Inquiry: Item C#Cc1c(F)ccc2cc(O)cc(-c3ncc4c(N5CC6CCC(C5)N6)nc(OCC56CCCN5CC(F)C6)nc4c3F)c12 (stereo not given) + CCN1C(C(=O)NC23CCC(C(=O)O)(CC2)CC3)C(c2cccc(Cl)c2F)C2(C(=O)Nc3cc(Cl)ccc32)C12CCCCC2 : provide viability, T/C
Reply text: 87.3
